Target: FGFR2 (Homo sapiens)
Construct: made in house; host or cells: E. coli (BL21-derived), T7 phage
Assay: Kinase binding assay (kinase-tagged T7 phage, affinity beads, qPCR), Kd
Settings: read-out: FGFR2 (Kd nM)
Where a name gives a salt, the structure may show the parent alone.
Reported Kd is given for each of the following molecules.

// known answers, use as guide
Molecule	Target under test	Quantity measured	Result
CC(C)NCC1(C)CN(c2ncc(-c3n[nH]c4ccc(O[C@H](C)c5c(Cl)cncc5Cl)c(F)c34)cc2C#N)C1	FGFR2 (Homo sapiens)	Kd	> 1000 nM
CCNC1(C)CN(c2ncc(-c3n[nH]c4ccc(O[C@H](C)c5c(Cl)cncc5Cl)cc34)cc2C#N)C1	FGFR2 (Homo sapiens)	Kd	1 to 50 nM

Now for another entry.
Fill blank: measured Kd of the molecule CCC1(NCC2CC2)CN(c2ncc(-c3n[nH]c4cc(OC)c(O[C@H](C)c5c(Cl)cncc5Cl)cc34)cc2C#N)C1 [Example 348, dihydrochloride] is ____.
1 to 50 nM

----------
Biological target: FGFR2 (Homo sapiens, UniProt P21802)
Construct: made in house; host or cells: E. coli (BL21-derived), T7 phage
Sequence (P21802 22-821): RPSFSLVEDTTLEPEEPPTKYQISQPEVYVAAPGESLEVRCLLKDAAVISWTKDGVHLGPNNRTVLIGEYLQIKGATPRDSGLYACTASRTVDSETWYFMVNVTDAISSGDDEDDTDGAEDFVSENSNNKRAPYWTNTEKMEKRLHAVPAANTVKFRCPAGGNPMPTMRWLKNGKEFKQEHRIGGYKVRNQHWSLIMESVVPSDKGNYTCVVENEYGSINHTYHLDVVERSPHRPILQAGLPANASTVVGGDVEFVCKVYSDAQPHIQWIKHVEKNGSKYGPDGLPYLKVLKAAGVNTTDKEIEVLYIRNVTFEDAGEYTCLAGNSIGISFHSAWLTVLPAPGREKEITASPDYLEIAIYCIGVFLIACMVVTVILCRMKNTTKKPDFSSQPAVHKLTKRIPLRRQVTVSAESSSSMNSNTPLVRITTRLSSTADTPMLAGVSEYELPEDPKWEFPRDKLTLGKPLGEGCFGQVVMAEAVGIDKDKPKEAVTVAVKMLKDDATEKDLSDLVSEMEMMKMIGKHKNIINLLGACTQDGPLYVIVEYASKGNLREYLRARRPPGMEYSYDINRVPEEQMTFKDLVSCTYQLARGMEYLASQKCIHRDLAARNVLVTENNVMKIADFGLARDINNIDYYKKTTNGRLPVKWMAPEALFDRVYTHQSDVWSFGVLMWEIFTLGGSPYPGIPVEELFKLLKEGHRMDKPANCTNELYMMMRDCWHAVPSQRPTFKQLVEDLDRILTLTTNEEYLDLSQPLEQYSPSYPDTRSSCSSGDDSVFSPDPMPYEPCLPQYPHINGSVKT
Assay: Kinase binding assay (kinase-tagged T7 phage, affinity beads, qPCR), Kd
Settings: read-out: FGFR2 (Kd nM)
Quantity measured: Kd

Compound	Kd
CCC1(N)CN(c2ncc(-c3n[nH]c4cc(OC)c(O[C@H](C)c5c(Cl)cncc5Cl)cc34)cc2C#N)C1 [Example 365]	1 to 50 nM

Fill blank: measured Kd of the compound C[C@@H](Oc1ccc2[nH]nc(-c3ccc(N4CC(C)(CN(C)S(C)(=O)=O)C4)nc3)c2c1)c1c(Cl)cncc1Cl [Example 74] is ____.
1 to 50 nM

Fill blank: measured Kd of the compound COc1cc2[nH]nc(-c3cnc(N4CC(C)(C)C4)nc3)c2cc1O[C@H](C)c1c(Cl)cncc1Cl [Example 61] is ____.
1 to 50 nM

Fill blank: measured Kd of the compound COc1cc2[nH]nc(-c3cnc(N4CC(C)(NCC(C)(C)O)C4)c(C#N)c3)c2cc1O[C@H](C)c1c(Cl)cncc1Cl [Example 55] is ____.
1 to 50 nM

Fill blank: measured Kd of the compound COc1cc2[nH]nc(-c3ccc(N4CC(C)(N[C@H]5CCOC5)C4)nc3)c2cc1O[C@H](C)c1c(Cl)cncc1Cl [Example 66] is ____.
1 to 50 nM

Fill blank: measured Kd of the compound CCN(CC)C1(C)CN(c2ncc(-c3n[nH]c4ccc(O[C@H](C)c5c(Cl)cnc(C)c5Cl)cc34)cc2C#N)C1 [Example 36] is ____.
50 to 300 nM

Fill blank: measured Kd of the compound C[C@@H](Oc1ccc2[nH]nc(-c3cnc(N4CC(C)(N5CC(C)(O)C5)C4)c(F)c3)c2c1)c1c(Cl)cncc1Cl [Example 96] is ____.
1 to 50 nM

Fill blank: measured Kd of the compound COc1cc2[nH]nc(-c3cnc(N4CC(C)(N5CC(C)(O)C5)C4)c(C#N)c3)c2cc1O[C@H](C)c1c(Cl)cncc1Cl [Example 99] is ____.
1 to 50 nM

Fill blank: measured Kd of the compound COc1cc2[nH]nc(-c3cnc(N4CC(C)(NCC(C)(C)O)C4)c(C#N)c3)c2cc1O[C@@H](C)c1c(Cl)cncc1Cl [Example 331] is ____.
300 to 1000 nM

----------
Molecular target: FGFR1 (Homo sapiens)
Construct: made in house; host or cells: E. coli (BL21-derived), T7 phage
Assay: Kinase binding assay (kinase-tagged T7 phage, affinity beads, qPCR), Kd
Settings: read-out: FGFR1 (Kd nM)
Reported Kd is given for each of the following compounds.

Fill blank: measured Kd of the compound COc1cc2[nH]nc(-c3ccc(N4CC(C)(CP(C)(C)=O)C4)nc3)c2cc1O[C@H](C)c1c(Cl)cncc1Cl [Example 180] is ____.
1 to 50 nM

----------
Target: FGFR2 (Homo sapiens)
Construct: made in house; host or cells: E. coli (BL21-derived), T7 phage
Assay: Kinase binding assay (kinase-tagged T7 phage, affinity beads, qPCR), Kd
Details: read-out: FGFR2 (Kd nM)
Quantity measured: Kd

// known answers, use as guide
Molecule	Kd
CC(C)OCCNC1(C)CN(c2ncc(-c3n[nH]c4ccc(O[C@H](C)c5c(Cl)cncc5Cl)cc34)cc2C#N)C1	50 to 300 nM
COc1cc2[nH]nc(-c3cnc(N4CC(CC#N)(N5CCCC5)C4)c(C#N)c3)c2cc1O[C@H](C)c1c(Cl)cncc1Cl	1 to 50 nM
COCCN(C)C1(C)CN(c2ncc(-c3n[nH]c4ccc(O[C@H](C)c5c(Cl)cncc5Cl)cc34)cc2F)C1	1 to 50 nM

Fill blank: measured Kd of the molecule C[C@@H](Oc1ccc2[nH]nc(-c3cnc(N4CC(C)(N(C)C)C4)c(F)c3)c2c1)c1c(Cl)cncc1Cl is ____.
1 to 50 nM

----------
Biological target: FGFR4 (Homo sapiens, UniProt P22455)
Construct: made in house; host or cells: E. coli (BL21-derived), T7 phage
Sequence (P22455 22-802): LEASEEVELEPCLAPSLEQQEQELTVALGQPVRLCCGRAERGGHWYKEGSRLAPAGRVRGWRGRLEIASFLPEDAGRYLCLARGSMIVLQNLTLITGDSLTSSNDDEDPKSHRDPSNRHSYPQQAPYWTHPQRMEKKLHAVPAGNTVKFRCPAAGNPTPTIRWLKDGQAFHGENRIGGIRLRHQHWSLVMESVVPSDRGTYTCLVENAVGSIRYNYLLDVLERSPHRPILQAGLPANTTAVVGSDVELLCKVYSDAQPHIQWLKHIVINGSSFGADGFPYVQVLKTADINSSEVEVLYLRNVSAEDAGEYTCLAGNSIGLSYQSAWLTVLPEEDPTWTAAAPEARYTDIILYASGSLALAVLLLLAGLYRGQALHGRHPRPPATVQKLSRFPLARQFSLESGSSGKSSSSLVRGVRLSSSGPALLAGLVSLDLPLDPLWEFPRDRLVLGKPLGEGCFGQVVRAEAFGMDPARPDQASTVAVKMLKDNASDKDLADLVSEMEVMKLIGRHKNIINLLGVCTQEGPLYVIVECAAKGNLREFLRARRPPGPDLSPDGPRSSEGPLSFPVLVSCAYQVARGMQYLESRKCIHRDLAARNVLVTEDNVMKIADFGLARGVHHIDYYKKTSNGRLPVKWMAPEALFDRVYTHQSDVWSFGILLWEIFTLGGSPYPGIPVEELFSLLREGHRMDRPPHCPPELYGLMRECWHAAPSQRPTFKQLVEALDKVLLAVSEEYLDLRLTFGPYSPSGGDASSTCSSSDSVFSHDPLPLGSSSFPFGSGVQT
Test: Kinase binding assay (kinase-tagged T7 phage, affinity beads, qPCR), Kd
Conditions: read-out: FGFR4 (Kd nM)
Quantity measured: Kd

Compound	Kd
Cc1ncc(Cl)c([C@@H](C)Oc2ccc3[nH]nc(-c4cnc(N5CC(C)(NC(C)C)C5)c(F)c4)c3c2)c1Cl [Example 221]	1 to 50 nM
CC[C@@H](C)NC1(C)CN(c2ncc(-c3n[nH]c4cc(OC)c(O[C@H](C)c5c(Cl)cncc5Cl)cc34)cc2C#N)C1 [Example 145]	1 to 50 nM
C[C@@H](Oc1cc2c(-c3cnc(N4CC(C)(CN5CCOCC5)C4)c(C#N)c3)n[nH]c2cc1F)c1c(Cl)cncc1Cl [Example 137]	1 to 50 nM
COc1cc2[nH]nc(-c3cnc(N4CC(C)(N5CC(C)(OC)C5)C4)c(C#N)c3)c2cc1O[C@H](C)c1c(Cl)cncc1Cl [Example 101]	1 to 50 nM
C[C@H](Oc1ccc2[nH]nc(-c3cnc(N4C[C@H](CS(C)(=O)=O)[C@H]4C)c(F)c3)c2c1)c1c(Cl)cncc1Cl [Example 208]	300 to 1000 nM
C[C@@H](Oc1cc2c(-c3cnc(N4CC(C)(CN5CCCC5)C4)c(C#N)c3)n[nH]c2cc1F)c1c(Cl)cncc1Cl [Example 317]	1 to 50 nM
C[C@@H](Oc1ccc2[nH]nc(-c3cnc(N4CC(C)(NCCS(C)(=O)=O)C4)c(F)c3)c2c1)c1c(Cl)cncc1Cl [Example 166]	1 to 50 nM
CNC1(C)CN(c2ccc(-c3n[nH]c4ccc(O[C@H](C)c5c(Cl)cncc5Cl)cc34)cn2)C1 [Example 233]	1 to 50 nM

Fill blank: measured Kd of the compound CNC1(C)CN(c2ncc(-c3n[nH]c4ccc(O[C@H](C)c5c(Cl)cncc5Cl)c(F)c34)cc2F)C1 [Example 197] is ____.
50 to 300 nM

Fill blank: measured Kd of the compound Cc1ncc(Cl)c([C@@H](C)Oc2ccc3[nH]nc(-c4ccc(N5CC(C)(N(C)C)C5)nc4)c3c2)c1Cl [Example 78] is ____.
1 to 50 nM

Fill blank: measured Kd of the compound COc1cc2[nH]nc(-c3cnc(N4CC(N)(CC5CC5)C4)c(C#N)c3)c2cc1O[C@H](C)c1c(Cl)cncc1Cl [Example 359] is ____.
1 to 50 nM

Fill blank: measured Kd of the compound COc1cc2[nH]nc(-c3cnc(N4CC(C)(N(C)CC5CC5)C4)c(C#N)c3)c2cc1O[C@H](C)c1c(Cl)cncc1Cl [Example 344] is ____.
1 to 50 nM

Fill blank: measured Kd of the compound C[C@@H](Oc1ccc2[nH]nc(-c3ccc(N4CC(C)(CS(C)(=O)=O)C4)nc3)c2c1)c1c(Cl)cncc1Cl [Example 181] is ____.
1 to 50 nM

Fill blank: measured Kd of the compound COCCN(C)C1(C)CN(c2ncc(-c3n[nH]c4ccc(O[C@H](C)c5c(Cl)cncc5Cl)cc34)cn2)C1 [Example 79] is ____.
1 to 50 nM

----------
Biological target: FGFR1 (Homo sapiens, UniProt P11362)
Construct: made in house; host or cells: E. coli (BL21-derived), T7 phage
Sequence (P11362 22-822): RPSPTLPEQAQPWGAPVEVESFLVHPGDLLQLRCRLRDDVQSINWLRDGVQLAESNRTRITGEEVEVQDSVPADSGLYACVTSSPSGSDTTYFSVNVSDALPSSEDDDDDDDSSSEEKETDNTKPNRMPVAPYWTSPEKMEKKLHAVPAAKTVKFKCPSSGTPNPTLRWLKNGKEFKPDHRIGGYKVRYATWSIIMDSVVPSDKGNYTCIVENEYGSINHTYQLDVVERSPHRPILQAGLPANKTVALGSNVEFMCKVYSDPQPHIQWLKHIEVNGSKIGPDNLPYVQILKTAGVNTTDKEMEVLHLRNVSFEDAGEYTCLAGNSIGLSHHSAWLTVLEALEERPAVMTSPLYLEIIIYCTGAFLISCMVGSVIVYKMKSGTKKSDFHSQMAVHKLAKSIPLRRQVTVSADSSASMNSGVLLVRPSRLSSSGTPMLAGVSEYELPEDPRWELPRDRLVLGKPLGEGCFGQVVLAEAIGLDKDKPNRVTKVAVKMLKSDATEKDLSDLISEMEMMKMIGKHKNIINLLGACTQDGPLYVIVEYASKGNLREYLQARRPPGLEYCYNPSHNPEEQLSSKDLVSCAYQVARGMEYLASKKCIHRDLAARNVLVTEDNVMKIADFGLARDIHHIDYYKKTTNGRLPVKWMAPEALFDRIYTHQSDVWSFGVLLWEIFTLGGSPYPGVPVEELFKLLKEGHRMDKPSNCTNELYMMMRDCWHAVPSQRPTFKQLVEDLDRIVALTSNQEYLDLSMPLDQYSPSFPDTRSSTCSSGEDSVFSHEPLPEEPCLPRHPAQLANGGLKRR
Test: Kinase binding assay (kinase-tagged T7 phage, affinity beads, qPCR), Kd
Settings: read-out: FGFR1 (Kd nM)
Reported Kd is given for each of the following molecules.

// known answers, use as guide
Molecule	Kd
COc1cc2[nH]nc(-c3ccc(N4CC(C)(N[C@@H]5CCOC5)C4)nc3)c2cc1O[C@H](C)c1c(Cl)cncc1Cl [Example 73]	1 to 50 nM
CC(C)OCC1(N)CN(c2ccc(-c3n[nH]c4ccc(O[C@H](C)c5c(Cl)cncc5Cl)cc34)nn2)C1 [Example 377]	1 to 50 nM
CC(C)N(C)C1(CC#N)CN(c2ncc(-c3n[nH]c4ccc(O[C@H](C)c5c(Cl)cncc5Cl)cc34)cc2F)C1 [Example 257]	50 to 300 nM
CC(C)NCC1(C)CN(c2ncc(-c3n[nH]c4ccc(O[C@H](C)c5c(Cl)cncc5Cl)c(F)c34)cc2C#N)C1 [Example 326]	> 1000 nM
C[C@@H](Oc1ccc2[nH]nc(-c3cnc(N4CC(C)(N5CCOCC5)C4)c(C#N)c3)c2c1F)c1c(Cl)cncc1Cl [Example 327]	> 1000 nM

Fill blank: measured Kd of the molecule CCN(CC)C1(C)CN(c2ccc(-c3n[nH]c4ccc(O[C@H](C)c5c(Cl)cnc(C)c5Cl)cc34)cn2)C1 [Example 72] is ____.
1 to 50 nM

Fill blank: measured Kd of the molecule Cc1ncc(Cl)c([C@@H](C)Oc2ccc3[nH]nc(-c4ccc(N5CC(C)(NC6CCC6)C5)nc4)c3c2)c1Cl [Example 71] is ____.
1 to 50 nM

Just for reference, patent US20250368666A1 is where these values come from.
